# System: SGC-7901 (human gastric cancer cells)
# ASSAY DETAILS: MTT cancer cell growth inhibition
# Format: cell-based
# EXPERIMENTAL CONTEXT: Homo sapiens, SGC-7901, 72 h, MTT, 72 hours incubation, SGC-7901 cells; read-out: GI50 SGC-7901
Please use yes for GI50 under 0.04 µM and no for everything else, ties included.

Consider the following illustrative entries.
C=C1NC(=O)c2cc(SC)cc(n2)CNC(=O)C[C@@H](/C=C/CCSC(C)=O)OC(=O)[C@H](C(C)C)NC1=O; no
C/C=C1\NC(=O)c2cc(F)cc(n2)CNC(=O)C[C@@H](/C=C/CCSC(=O)CCCCCCC)OC(=O)[C@H](C(C)C)NC1=O; no

Does the reported GI50 of the following molecule sit strictly below 0.04 µM? C/C=C1\NC(=O)c2cccc(n2)CNC(=O)C[C@@H](/C=C/CCS)OC(=O)[C@H](CCCCNC(=O)OCC2c3ccccc3-c3ccccc32)NC1=O
yes

Does the reported GI50 of the following molecule sit strictly below 0.04 µM? C/C=C1\NC(=O)c2nc(ccc2SC)CNC(=O)C[C@@H](/C=C/CCSC(=O)CCCCC)OC(=O)[C@H](C(C)C)NC1=O
no

Does the reported GI50 of the following molecule sit strictly below 0.04 µM? C/C=C1\NC(=O)c2nc(ccc2F)CNC(=O)C[C@@H](/C=C/CCSC(C)=O)OC(=O)[C@H](C)NC1=O
no

Does the reported GI50 of the following molecule sit strictly below 0.04 µM? C/C=C1\NC(=O)c2ccc(F)c(n2)CNC(=O)C[C@@H](/C=C/CCSC(=O)CC)OC(=O)[C@H](C(C)C)NC1=O
no

====

Can you tell me GI50 for the items I'm about to list?
# Tested on: Bel-7402 (human hepatoma cells)
# ASSAY DETAILS: MTT cancer cell growth inhibition
# Assay type: cell-based
# EXPERIMENTAL CONTEXT: Homo sapiens, Bel-7402, 72 h, MTT, 72 hours incubation, Bel-7402 cells; read-out: GI50 Bel-7402
Numbers only, in nM.

C/C=C1\NC(=O)c2cc(F)cc(n2)CNC(=O)C[C@@H](/C=C/CCSC(=O)CCCC)OC(=O)[C@H](C(C)C)NC1=O [Compound 40]; 74
C/C=C1\NC(=O)c2ncc(SC)c(n2)CNC(=O)C[C@@H](/C=C/CCSC(C)=O)OC(=O)[C@H](C)NC1=O [Compound 219]; 82
C=C1NC(=O)c2nc(ccc2F)CNC(=O)C[C@@H](/C=C/CCSC(C)=O)OC(=O)[C@H](C)NC1=O [Compound 90]; 94
C/C=C1\NC(=O)c2cccc(n2)CNC(=O)C[C@@H](/C=C/CCSC=O)OC(=O)[C@H](C(C)C)NC1=O [Compound 8]; 94
C/C=C1\NC(=O)c2cccc(n2)CNC(=O)C[C@@H](/C=C/CCSC(C)=O)OC(=O)[C@@H](C)NC1=O [Example 25]; 93

Please give GI50, item by item, for the list that follows.
1. C/C=C1\NC(=O)c2nc(ccc2SCC)CNC(=O)C[C@@H](/C=C/CCSC(=O)CCCCCCC)OC(=O)[C@H](C(C)C)NC1=O [Compound 247]
2. C/C=C1\NC(=O)c2nc(ccc2F)CNC(=O)C[C@@H](/C=C/CCSC(=O)CCCCCCC)OC(=O)[C@H](C(C)C)NC1=O [Compound 30]
3. C/C=C1\NC(=O)c2ccc(SC)c(n2)CNC(=O)C[C@@H](/C=C/CCS)OC(=O)[C@H](CC)NC1=O [Compound 231]
4. C=C1NC(=O)c2ccc(F)c(n2)CNC(=O)C[C@@H](/C=C/CCS)OC(=O)[C@H](C)NC1=O [Compound 142]

[95, 82, 58, 73]

====

Can you tell me GI50 for the items I'm about to list?
# Tested on: MDA-MB-231 (breast cancer cells)
# ASSAY DETAILS: MTT cancer cell growth inhibition
# Type: cell-based
# EXPERIMENTAL CONTEXT: Homo sapiens, MDA-MB-231, 72 h, read-out: GI50 MDA-MB-231, MTT, 72 hours incubation, MDA-MB-231 cells
Answers are plain numbers, in nM.

Sample records with GI50:
C/C=C1\NC(=O)c2cc(SCCC)cc(n2)CNC(=O)C[C@@H](/C=C/CCSC(=O)CCCCCCC)OC(=O)[C@H](CC)NC1=O; 29
C=C1NC(=O)c2ccc(F)c(n2)CNC(=O)C[C@@H](/C=C/CCSC(C)=O)OC(=O)[C@H](C)NC1=O; 43
C/C=C1\NC(=O)c2nc(ccc2SCC)CNC(=O)C[C@@H](/C=C/CCSC(=O)CCCCCC)OC(=O)[C@H](C(C)C)NC1=O; 21
C=C1NC(=O)c2cc(F)cc(n2)CNC(=O)C[C@@H](/C=C/CCSC(C)=O)OC(=O)[C@H](C)NC1=O; 46
C=C1NC(=O)c2nc(ccc2F)CNC(=O)C[C@@H](/C=C/CCSC(C)=O)OC(=O)[C@H](C(C)C)NC1=O; 28

Now for a further molecule.
The measured GI50 associated with C/C=C1\NC(=O)c2ccc(SC)c(n2)CNC(=O)C[C@@H](/C=C/CCSC(=O)CCCCCCC)OC(=O)[C@H](Cc2ccccc2)NC1=O reads 52

====

Can you tell me GI50 for the items I'm about to list?
# System: A549 (human lung cancer cells)
# ASSAY DETAILS: MTT cancer cell growth inhibition
# Assay type: cell-based
# EXPERIMENTAL CONTEXT: Homo sapiens, A549, 72 h, A549 cells, MTT, 72 hours incubation; read-out: GI50 A54
Give bare numbers, in nM.

Sample records with GI50:
C/C=C1\NC(=O)c2ccc(SCC)c(n2)CNC(=O)C[C@@H](/C=C/CCSC(=O)CCCCCC)OC(=O)[C@H](C(C)C)NC1=O; 50
C/C=C1\NC(=O)c2cc(SC)cc(n2)CNC(=O)C[C@@H](/C=C/CCSC(=O)CCCCCCC)OC(=O)[C@H](CC)NC1=O; 30

Now for a further compound.
The measured GI50 associated with C/C=C1\NC(=O)c2nc(ccc2SC)CNC(=O)C[C@@H](/C=C/CCSC(C)=O)OC(=O)[C@H](C(C)C)NC1=O reads 30

====

Can you tell me GI50 for the items I'm about to list?
# Tested on: DU145 (human prostate cancer cells)
# ASSAY DETAILS: MTT cancer cell growth inhibition
# Assay type: cell-based
# EXPERIMENTAL CONTEXT: Homo sapiens, DU-145, 72 h, MTT, 72 hours incubation; read-out: GI50 Du1
Give bare numbers, in nM.

C/C=C1\NC(=O)c2nc(F)cc(n2)CNC(=O)C[C@@H](/C=C/CCSC(C)=O)OC(=O)[C@H](C(C)C)NC1=O; 20

Please give GI50, item by item, for the list that follows.
1. CC(=O)SCC/C=C/[C@@H]1CC(=O)NCc2ccc(F)c(n2)C(=O)NC(=C(C)C)C(=O)N[C@@H](C(C)C)C(=O)O1
2. C/C=C1\NC(=O)c2cc(F)cc(n2)CNC(=O)C[C@@H](/C=C/CCSC(C)=O)OC(=O)[C@H](CCCCN)NC1=O

1. 20
2. 30

====

# System: lncap (prostate cancer cells)
# ASSAY DETAILS: MTT cancer cell growth inhibition
# Type: cell-based
# EXPERIMENTAL CONTEXT: Homo sapiens, LNCaP, 72 h, MTT, 72 hours incubation; read-out: GI50 lnca
Please use class 1 for GI50 under 30 nM and class 0 for everything else, ties included.

Consider the following illustrative entries.
C/C=C1\NC(=O)c2cc(F)cc(n2)CNC(=O)C[C@@H](/C=C/CCSC(=O)CCCCCCC)OC(=O)[C@H](C(C)C)NC1=O; class 1
C/C=C1\NC(=O)c2cccc(n2)CNC(=O)C[C@@H](/C=C/CCSC(C)=O)OC(=O)[C@@H](C)NC1=O; class 0
C/C=C1\NC(=O)c2ncc(F)c(n2)CNC(=O)C[C@@H](/C=C/CCSC(C)=O)OC(=O)[C@H](C)NC1=O; class 1
C=C1NC(=O)c2ccc(F)c(n2)CNC(=O)C[C@@H](/C=C/CCS)OC(=O)[C@H](C(C)C)NC1=O; class 0
C/C=C1\NC(=O)c2nc(ccc2F)CNC(=O)C[C@@H](/C=C/CCS)OC(=O)[C@H](Cc2cccc3ccccc23)NC1=O; class 0

Does the reported GI50 of the following compound sit strictly below 30 nM? CC(C)=C1NC(=O)c2ccc(F)c(n2)CNC(=O)C[C@@H](/C=C/CCS)OC(=O)[C@H](C(C)C)NC1=O
class 0

Does the reported GI50 of the following compound sit strictly below 30 nM? C/C=C1\NC(=O)c2ccc(F)c(n2)CNC(=O)C[C@@H](/C=C/CCSC(C)=O)OC(=O)[C@H](CCCCNC(=O)OCC2c3ccccc3-c3ccccc32)NC1=O
class 1

Does the reported GI50 of the following compound sit strictly below 30 nM? C=C1NC(=O)c2cccc(n2)CNC(=O)C[C@@H](/C=C/CCS)OC(=O)[C@H](C(C)C)NC1=O
class 0

Does the reported GI50 of the following compound sit strictly below 30 nM? C=C1NC(=O)c2cccc(n2)CNC(=O)C[C@@H](/C=C/CCS)OC(=O)[C@H](C)NC1=O
class 0

Does the reported GI50 of the following compound sit strictly below 30 nM? C/C=C1\NC(=O)c2ccc(F)c(n2)CNC(=O)C[C@@H](/C=C/CCSC(=O)CCCCCCC)OC(=O)[C@H](Cc2ccccc2)NC1=O
class 1

Does the reported GI50 of the following compound sit strictly below 30 nM? C/C=C1\NC(=O)c2cccc(n2)NC(=O)C[C@@H](/C=C/CCSC(C)=O)OC(=O)[C@H](C(C)C)NC1=O
class 0

Does the reported GI50 of the following compound sit strictly below 30 nM? CC(=O)SCC/C=C/[C@@H]1CC(=O)NCc2cccc(n2)C(=O)NC(=C(C)C)C(=O)N[C@@H](C(C)C)C(=O)O1
class 0

Does the reported GI50 of the following compound sit strictly below 30 nM? C/C=C1\NC(=O)c2nc(ccc2F)CNC(=O)C[C@@H](/C=C/CCSC(=O)CCCC)OC(=O)[C@H](C(C)C)NC1=O
class 1

Does the reported GI50 of the following compound sit strictly below 30 nM? CC(C)=C1NC(=O)c2cccc(n2)CNC(=O)C[C@@H](/C=C/CCS)OC(=O)[C@H](C(C)C)NC1=O
class 0

Does the reported GI50 of the following compound sit strictly below 30 nM? C/C=C1\NC(=O)c2ccc(F)c(n2)CNC(=O)C[C@@H](/C=C/CCSC(C)=O)OC(=O)[C@H](C(C)C)NC1=O
class 1
